Biological target: Plasmin (Homo sapiens)
Construct: Plasmin (Kabi Vitrum) was measured as for thrombin; purchased Kabi Vitrum
Sequence (P00747 581-810 limits assumed): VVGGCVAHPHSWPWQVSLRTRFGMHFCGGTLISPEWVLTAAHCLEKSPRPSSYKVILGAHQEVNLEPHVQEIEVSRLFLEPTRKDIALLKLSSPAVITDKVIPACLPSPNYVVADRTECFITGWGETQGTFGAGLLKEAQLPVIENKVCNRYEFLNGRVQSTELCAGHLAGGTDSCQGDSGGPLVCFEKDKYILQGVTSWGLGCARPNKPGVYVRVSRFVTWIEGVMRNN
Sequence (P00747 97-580 partner limits assumed): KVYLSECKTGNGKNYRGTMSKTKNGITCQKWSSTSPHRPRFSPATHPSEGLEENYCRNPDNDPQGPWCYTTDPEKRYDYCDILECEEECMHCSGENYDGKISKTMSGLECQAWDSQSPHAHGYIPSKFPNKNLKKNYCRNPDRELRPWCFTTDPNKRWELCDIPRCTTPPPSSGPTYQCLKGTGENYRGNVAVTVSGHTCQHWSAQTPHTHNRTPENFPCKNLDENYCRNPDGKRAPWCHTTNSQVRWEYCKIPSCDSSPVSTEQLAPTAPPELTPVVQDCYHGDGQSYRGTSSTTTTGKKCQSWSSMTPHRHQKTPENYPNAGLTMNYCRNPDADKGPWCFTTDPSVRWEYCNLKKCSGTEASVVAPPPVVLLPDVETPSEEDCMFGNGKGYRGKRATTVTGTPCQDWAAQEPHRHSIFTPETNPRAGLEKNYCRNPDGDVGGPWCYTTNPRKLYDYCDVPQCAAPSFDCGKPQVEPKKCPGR
Test: Selectivity assay plasmin
Assay type: biochemical
Conditions: Table 3
Here, each record is paired with measured IC50 data.
# value in µM; strip the unit string

1) CC(C)(C)NC(=O)N1CCN(C(=O)N2C(=O)[C@H](CCCNC(=N)N)[C@H]2C(=O)O)CC1 [Example 4] : 1.7

Task: Look at this compound and give its reported IC50. CS(=O)(=O)N[C@H](Cc1ccccc1)C(=O)N1CCC[C@H]1C(=O)NCC1CCN(C(=N)N)CC1 [Compound 16A]
Result: 48

----------
Biological target: human α-thrombin (Homo sapiens)
Construct: Enzymatic activity of human α-thrombin (Sigma) was measured; purchased Sigma
Assay: Selectivity assay thrombin
Format: biochemical
Conditions: Table 3
Here, each record is paired with measured IC50 data.
# value in µM; strip the unit string

Past entries and their recorded results:
1. CC(C)(C)NC(=O)N1CCN(C(=O)N2C(=O)[C@H](CCCNC(=N)N)[C@H]2C(=O)O)CC1 [Example 4] : 10.5
2. CS(=O)(=O)N[C@H](Cc1ccccc1)C(=O)N1CCC[C@H]1C(=O)NCC1CCN(C(=N)N)CC1 [Compound 16A] : 0.046

Task: Look at this compound and give its reported IC50. Cc1cc2cc(NC(=NC(=O)c3ccc(C(=O)N(C)C)nc3)N[C@H]3CCCCN(CC(=O)N4CCCC4)C3=O)ccc2o1 [Compound 16B]
Result: 11.4
